Biological target: MAST2, Q6P0Q8
Sequence (Q6P0Q8 1099-1202): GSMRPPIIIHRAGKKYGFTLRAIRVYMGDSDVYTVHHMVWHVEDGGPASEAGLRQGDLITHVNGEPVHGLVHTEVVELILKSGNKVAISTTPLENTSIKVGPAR
Assay: holdup assay
Set-up: key: below the threshold = too weak to quantify, mostly under pKd 3.1 to 4
Settings: plain residues with an end cap or a label only (N-terminal biotin on a linker: ttds)
Response key: MET means pKd >= 5; NOT MET means pKd < 5.

Example results:
{"binder": "FHPLGADSQV [SLC2A1, P11166]", "class_name": "NOT MET"}
{"binder": "RLQRRRETQV [HPV18-E6, P06463]", "class_name": "NOT MET"}
{"binder": "PRVKPQRSKV [PPP1R13L, Q8WUF5]", "class_name": "NOT MET"}
{"binder": "KKYVDAETSL [SLC4A7, Q9Y6M7]", "class_name": "MET"}
{"binder": "RPLPRKVSQL [DOCK4, Q8N1I0]", "class_name": "NOT MET"}
{"binder": "SGSRPSATVV [HPV73-E6, Q82005]", "class_name": "NOT MET"}

Turning to the following binder.
Check if pKd >= 5 (inclusive). Item: PVRVCEETSL [OTULIN, Q96BN8]
MET

Data provenance is paper PMC9482650.
